target: DNA gyrase (374 kDa Gyr A2B2 subunit from Staphylococcus aureus) (Staphylococcus aureus, UniProt P0A0K8)
Sequence (P0A0K8 whole entry): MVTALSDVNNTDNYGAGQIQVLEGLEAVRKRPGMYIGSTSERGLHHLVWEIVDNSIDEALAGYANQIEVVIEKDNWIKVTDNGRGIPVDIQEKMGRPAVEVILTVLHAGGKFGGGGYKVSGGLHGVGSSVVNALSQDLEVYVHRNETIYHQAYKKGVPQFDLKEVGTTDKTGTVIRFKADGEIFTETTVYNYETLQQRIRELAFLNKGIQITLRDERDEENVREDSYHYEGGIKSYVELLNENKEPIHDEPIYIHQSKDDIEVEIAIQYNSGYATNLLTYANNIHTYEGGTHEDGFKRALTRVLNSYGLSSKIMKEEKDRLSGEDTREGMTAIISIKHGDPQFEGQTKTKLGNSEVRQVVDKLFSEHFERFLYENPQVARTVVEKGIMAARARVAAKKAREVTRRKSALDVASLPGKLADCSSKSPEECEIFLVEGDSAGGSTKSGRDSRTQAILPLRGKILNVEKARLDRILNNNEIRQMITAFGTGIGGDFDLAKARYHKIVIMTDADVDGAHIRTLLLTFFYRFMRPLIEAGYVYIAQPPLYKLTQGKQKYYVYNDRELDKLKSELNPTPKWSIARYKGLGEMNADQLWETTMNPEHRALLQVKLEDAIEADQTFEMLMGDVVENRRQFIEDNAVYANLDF
Sequence (P20831 whole entry, further chain): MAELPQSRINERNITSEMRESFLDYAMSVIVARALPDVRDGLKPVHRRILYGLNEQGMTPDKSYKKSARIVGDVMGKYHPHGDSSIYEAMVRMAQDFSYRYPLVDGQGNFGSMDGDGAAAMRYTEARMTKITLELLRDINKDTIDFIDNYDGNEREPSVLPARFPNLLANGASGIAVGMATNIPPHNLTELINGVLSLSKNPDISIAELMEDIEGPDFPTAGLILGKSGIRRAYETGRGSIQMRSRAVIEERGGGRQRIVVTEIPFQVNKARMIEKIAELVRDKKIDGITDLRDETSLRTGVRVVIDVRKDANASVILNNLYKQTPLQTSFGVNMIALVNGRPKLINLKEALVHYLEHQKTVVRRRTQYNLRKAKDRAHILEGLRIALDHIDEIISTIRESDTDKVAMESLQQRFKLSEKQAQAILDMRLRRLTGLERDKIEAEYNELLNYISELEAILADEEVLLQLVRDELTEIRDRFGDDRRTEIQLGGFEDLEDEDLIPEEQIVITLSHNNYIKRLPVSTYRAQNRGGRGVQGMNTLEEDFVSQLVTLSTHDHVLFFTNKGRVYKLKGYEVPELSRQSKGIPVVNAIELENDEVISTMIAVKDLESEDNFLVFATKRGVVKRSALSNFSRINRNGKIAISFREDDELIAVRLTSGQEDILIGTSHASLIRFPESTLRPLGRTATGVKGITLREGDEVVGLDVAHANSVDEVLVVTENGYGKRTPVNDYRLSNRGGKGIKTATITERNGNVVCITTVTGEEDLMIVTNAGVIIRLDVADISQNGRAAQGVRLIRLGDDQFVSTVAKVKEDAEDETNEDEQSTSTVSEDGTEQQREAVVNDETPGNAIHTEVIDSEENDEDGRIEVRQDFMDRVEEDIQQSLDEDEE
assay: Gyrase ATPase Assay
Assay type: biochemical
condition context: 10 μM concentration; ATPase assay at 30° C., 0.9 mM ATP; average of duplicate values; read-out: Gyrase Inhibitory Activity (percent inhibition)
recorded endpoint: inhibition at 10 µM

The examples below pair each entry with its known result.
1. CCOC(=O)Nc1nc2cc(-c3cnc(NC(CO)C(=O)O)nc3)ccc2[nH]1 (stereo not drawn)
> 75%
2. CCNC(=O)Nc1nc2cc(-c3cccnc3)c3c(c2[nH]1)OC(F)(F)O3
50 to 75%
3. CCNC(=O)Nc1nc2cc(-c3cnc(NC(CO)C(=O)O)nc3)ccc2[nH]1 (stereo not drawn)
> 75%
4. CCNC(=O)Nc1nc2cc(-c3ccc(N4CCC(O)C4)nc3)ccc2[nH]1 (stereo not drawn)
> 75%
5. CCNC(=O)Nc1nc2cc(C(=O)NOC(C)(C)C)ccc2[nH]1
< 50%
6. CCOC(=O)Nc1nc2cc(-c3ccc(OC)cc3)ccc2[nH]1
> 75%

Suppose we examine the molecule "CCNC(=O)Nc1nc2cc(C(=O)O)ccc2[nH]1" ; what inhibition at 10 µM value has been reported?
< 50%

Suppose we examine the molecule "CCNC(=O)Nc1nc2cc(-n3ccc(=O)c(O)c3C)ccc2[nH]1" ; what inhibition at 10 µM value has been reported?
< 50%

Suppose we examine the molecule "CCNC(=O)Nc1nc2cc(-c3ccc(N4CCCC4)nc3)ccc2[nH]1" ; what inhibition at 10 µM value has been reported?
> 75%
